Tested on: 786-0
Assay: NCI tumour cell line growth inhibition, 48 h
Activity calls are given as the source filed them. Cut-off read from the data, not from the text of the source: active = GI50 up to about 1.1 µM and inactive = higher.
Assign GI50 to each entry below.

Known results for molecules:
>>> print(df.to_string())
                                   molecule       measuredresult
0       CC(C)=CCOc1cc(NC(=S)c2ccsc2C)ccc1Cl   40.2 µM (inactive)
1  CCCCCCCC1(N=[N+]=[N-])C(=O)c2ccccc2N(C)C1=O (stereo unspecified)  > 100 µM (inactive)
2  O=c1[nH]nc(Nc2ccc(Cl)cc2)c2nnn(-c3ccc([N+](=O)[O-])cc3)c12   17.1 µM (inactive)
3  COc1ccc(N2C(=O)/C(=C/c3ccc(N(CCC#N)CCC#N)cc3C)N=C2/C=C\c2ccccc2)cc1   44.4 µM (inactive)
4  CCOC(=O)c1cn(-c2ccc([N+](=O)[O-])cc2)c(=S)n2c1nc1ccccc12   30.1 µM (inactive)

With those in mind, consider the next molecule.
Exercise: For CC[C@@]1(O)C(=O)OCc2c1cc1n(c2=O)Cc2c-1nc1ccc(O)cc1c2[Si](C)(C)C(C)(C)C [AR-67] , what is its reported GI50?
Key: < 0.01 µM (active)

---

Assign GI50 to each entry below.
System: BT-549
Assay: NCI tumour cell line growth inhibition, 48 h
Active and inactive are the calls of the source. Cut-off read from the data, not from the text of the source: active = GI50 up to about 1.1 µM and inactive = higher.

compound	measureName	measuredResult
COc1ccc(/N=N/C(=N/NC(=O)c2ccccc2)c2ccc(N(CCC#N)CCC#N)cc2C)cc1	GI50	52.4 µM (inactive)
COc1c(Cl)cc(NC(=S)C#N)cc1Cl	GI50	16.6 µM (inactive)
CCc1nn(CN2CCOCC2)c(=S)n1/N=C/c1ccc(-c2ccc(Cl)cc2)o1	GI50	> 100 µM (inactive)

Parameters: items (list). Returns: GI50 for each item.
1. CCCCCCCCCCCCCCCCCCNc1ccn(C2OC(CO)C(OP(=O)(O)OCC(O)COP(=O)(O)OCC3OC(n4cc(F)c(NCCCCCCCCCCCCCCCCCC)nc4=O)CC3O)C2O)c(=O)n1 (stereo not given)
2. CC(C)N(C)C(=O)C12C3C4C1C1C2C3C41C#N (stereo not given)
3. O=S(=O)(c1ccc(Br)cc1)N1CCN(S(=O)(=O)c2ccc(Br)cc2)CC1
4. CCOC(CI)O[C@@H]1C=C[C@H](OC(C)=O)C1 (stereo not given in full)
5. Oc1ccc(-c2nc(-c3cccnc3)c(-c3ccc(F)cc3)[nH]2)cc1

Key:
> 50 µM (inactive)
> 100 µM (inactive)
> 100 µM (inactive)
> 100 µM (inactive)
16.6 µM (inactive)

Parameters: items (list). Returns: GI50 for each item.
1. CCOC(=O)c1ccc(NCC#CCN2CCCCC2)cc1
2. Nc1nc(N)c2cc(Sc3cccc(C(F)(F)F)c3)ccc2n1 [WR-159412]
3. C/C(=N\Nc1cc(CN2CCCC2)c(-c2ccc(Cl)cc2)nn1)C(=O)O
4. CC(C)(C)OC(=O)n1c2ccccc2c2c(=O)nc(N3CCCCC3)sc21
5. COc1cc(/C=C/c2cc(/C=C/c3ccc(O)c(OC)c3)oc(=O)c2)ccc1O

Key:
1: > 100 µM (inactive); 2: 6.07 µM (inactive); 3: > 100 µM (inactive); 4: > 100 µM (inactive); 5: 3.23 µM (inactive)

Parameters: items (list). Returns: GI50 for each item.
1. COc1ccc2c(c1)-c1[nH]c3ccc(OC)cc3c1CC2
2. CC1=CC(C/C(C)=C/COc2ccc3ccc(=O)oc3c2)OC1=O (stereo not given)

Key:
1: 17.7 µM (inactive); 2: 76.2 µM (inactive)
